experiment_summary: protein stability index of a GFP-peptide fusion (yeast GPS) (PSI 1-4); higher = more stable; sorted into four equal gates, so the index is relative within each strain
assay_context: doa10∆
Decision: protein stability index compared against 2; not below it gives t, below it gives f.

construct_sequence: DDDDDEDEEEEEEVTDQ [QCR6]
category: t
//
construct_sequence: LISGKAGVLNGTLEYGT [RET1]
category: t
//
construct_sequence: SSLFQEKLLETNVSKQN [ECM29]
category: t
//
construct_sequence: LSINEKDFVTMAIEIIN [YCG1]
category: t
//
construct_sequence: VHDKIWCCRSGSAADTQ [PRE3]
category: t
//
construct_sequence: VTLDITTLTIMRILPRE [RPT4]
category: t
//
construct_sequence: KRAEKAARKAEKAKSAG [RPL24B]
category: t
//
construct_sequence: AASSQVSIVKLDTQLIT [SNF12]
category: f
//
construct_sequence: DEFKDITKEVTQVNILK [YIL149C/MLP2]
category: t
//
construct_sequence: INTLNGGSSDTADKIRI [GAL11]
category: t
//
construct_sequence: VKRYRLAPTQLSAEYLV [SIN4]
category: t
//
construct_sequence: NIQHLLYGKRFFPYYVH [PRE7]
category: f

###

experiment_summary: protein stability index of a GFP-peptide fusion (yeast GPS) (PSI 1-4); higher = more stable; sorted into four equal gates, so the index is relative within each strain
assay_context: doa10∆
Use Yes when the recorded protein stability index is no lower than 2; use No when it is lower.

construct_sequence: KIINKPNELSQILTVDP [RPC82]
category: Yes
//
construct_sequence: KLLSLLRSKTSAGRIES [SIR4]
category: Yes
//
construct_sequence: NEEGDWSCIVVENWIID [ITC1]
category: Yes
//
construct_sequence: GPAAAKPMAFSNTTTHV [MTR3]
category: Yes
//
construct_sequence: SFDFGNENEDEDEGTLN [ARP9]
category: Yes
//
construct_sequence: SPLNTTTKILGDKILGN [YML103C/NUP188]
category: Yes
//
construct_sequence: PDILATDLIREKTMMTF [YCS4]
category: Yes
//
construct_sequence: KSGRINGFHGRLGDLGV [SMC4]
category: Yes
//
construct_sequence: KQDCVDWFTYSYFYRRI [BRR2]
category: No
//
construct_sequence: PSYTHVLISKLSCEKIT [RRI1]
category: Yes
//
construct_sequence: QKSFEQLNSRAVAVVVD [RPN11]
category: No
//
construct_sequence: DITVHGEQIIVHPVNER [RRP45]
category: Yes
//
construct_sequence: KLLKVCLTMFEDRNESV [ECM29]
category: Yes

###

experiment_summary: protein stability index of a GFP-peptide fusion (yeast GPS) (PSI 1-4); higher = more stable; sorted into four equal gates, so the index is relative within each strain
assay_context: san1∆
So basically: protein stability index at 3 or higher? That is condition met. Lower than 3? That is condition not met.

construct_sequence: DTYPYLTGEWSTKFDYP [FAS1]
category: condition not met

construct_sequence: THEQWSNIQRNVLFLRL [SRP72]
category: condition not met

construct_sequence: LAMEAILNELEVFIGRV [YJR042W/NUP85]
category: condition not met

construct_sequence: TRAMEYLKFRELPAGQN [RPB2]
category: condition met

construct_sequence: FLDYTTDNVSMYPSPTG [PRP8]
category: condition not met

construct_sequence: ISTACPRLDDVVVDTVE [SMC4]
category: condition met

construct_sequence: TVAVLPPNWKYESATAS [RPS13]
category: condition not met

###

experiment_summary: protein stability index of a GFP-peptide fusion (yeast GPS) (PSI 1-4); higher = more stable; sorted into four equal gates, so the index is relative within each strain
assay_context: doa10∆

construct_sequence: ASSAVMNRRKIAMPKRR [YLR335W/NUP2]
protein stability index: 1.19
--
construct_sequence: LGWIHTQTEELKFMAAS [PRP8]
protein stability index: 2.59
--
construct_sequence: LESFQAVYNKLTGKQIV [RPS7A]
protein stability index: 1.68
--
construct_sequence: YSKIKHLGLDDPQDVFN [SIR2]
protein stability index: 2.77
--
construct_sequence: LPIYDSLMSSQNKLFYI [SIR3]
protein stability index: 2.15
--
construct_sequence: AVDHRRQNRNQEIFDAN [RPL13A]
protein stability index: 3.15
--
construct_sequence: LSTLPAGKSLVSKSEPK [QCR2]
protein stability index: 2.95
--
construct_sequence: ASLKHDNETKAMLINLI [RPN3]
protein stability index: 2.85
--
construct_sequence: SAVIIDEFKDITKEVTQ [YIL149C/MLP2]
protein stability index: 2.76
--
construct_sequence: SRSNFQGKHTKFENDEL [LRP1]
protein stability index: 3.28

###

experiment_summary: protein stability index of a GFP-peptide fusion (yeast GPS) (PSI 1-4); higher = more stable; sorted into four equal gates, so the index is relative within each strain
assay_context: pdr5∆
Rule: protein stability index under 3 gives no, otherwise yes.

construct_sequence: EQVLSAAATFPIAQPAT [RPL13A]
category: no
//
construct_sequence: VVSLKEGMFANANRVFR [SMC2]
category: yes
//
construct_sequence: LSRYVKWPEYVRVQRQK [RPL8A]
category: no
//
construct_sequence: SKQTPQPKAPRAPKVIH [ISW2]
category: yes
//
construct_sequence: KTAIEGSYIDKKCPFTG [RPS11A]
category: yes
//
construct_sequence: RSMLTVVRNMLALTTLS [YCG1]
category: no
//
construct_sequence: YMEKGTQLDDLQHELMI [YML103C/NUP188]
category: no
//
construct_sequence: IYSVEKKISRLPKFLTV [UBP6]
category: no
//
construct_sequence: SKKDPRILKNVSPNDNN [YMR153W/NUP53]
category: no

###

Documented protein stability index across a set of sequences
experiment_summary: protein stability index of a GFP-peptide fusion (yeast GPS) (PSI 1-4); higher = more stable; sorted into four equal gates, so the index is relative within each strain
assay_context: ubr1∆
value_kind: protein stability index

construct_sequence: NQNTLKEISARRYKLLT [POP1]
observed_measurement: 2.65
//
construct_sequence: NVEEEQIVPYIEKLTDG [BRR2]
observed_measurement: 3.2
//
construct_sequence: INKIVEILTNQQRGITY [YGR119C/NUP57]
observed_measurement: 2.09
//
construct_sequence: APGKVELAINLIRFDES [SMC2]
observed_measurement: 2.83
//
construct_sequence: LSTLPAGKSLVSKSEPK [QCR2]
observed_measurement: 3.44
//
construct_sequence: VPLSDNAIIEANLGKYG [RPL7A]
observed_measurement: 2.28
//
construct_sequence: AFIFGLQDELKELQLEK [SMC3]
observed_measurement: 3.54
//
construct_sequence: TGWNAKTYGISDDIISQ [FAS2]
observed_measurement: 1.2
//
construct_sequence: TGPFKVNGVPLRRVNAR [RPL6B]
observed_measurement: 2.72
//
construct_sequence: VLVLHGDKDTRADIVRN [ISW2]
observed_measurement: 3.06
//
construct_sequence: QTRKEYNTSILEFRWLT [SIN4]
observed_measurement: 2.42

###

experiment_summary: protein stability index of a GFP-peptide fusion (yeast GPS) (PSI 1-4); higher = more stable; sorted into four equal gates, so the index is relative within each strain
assay_context: pdr5∆
protein stability index overview
value_kind: protein stability index

construct_sequence: FAQENSELAVATTSVMM [SRB6]
observed_measurement: 3.13
--
construct_sequence: ELKTRDATNTSYKMIQL [SWP82]
observed_measurement: 3.5
--
construct_sequence: PDILATDLIREKTMMTF [YCS4]
observed_measurement: 3.08
--
construct_sequence: AARHRARFRSIHILKVA [RPL20A]
observed_measurement: 1.18
--
construct_sequence: TYKYPSLKGVDPKFRRN [RPL29]
observed_measurement: 2.88
--
construct_sequence: LYPIFLLDDKKLMDEDS [YJR042W/NUP85]
observed_measurement: 1.84
--
construct_sequence: KIADLVRIPPDQFHRDT [RPC25]
observed_measurement: 2.52
--
construct_sequence: FIERNFTPQEIEYCSAQ [FAS2]
observed_measurement: 3.54

###

experiment_summary: protein stability index of a GFP-peptide fusion (yeast GPS) (PSI 1-4); higher = more stable; sorted into four equal gates, so the index is relative within each strain
assay_context: pdr5∆
protein stability index listing for selected sequences.

construct_sequence: SNNTAATADTTHLHEAL [NUT1]
protein stability index: 3.07

construct_sequence: KESEISHNENKMDFSSK [YIL149C/MLP2]
protein stability index: 3

construct_sequence: SNVLDGNKNQFEPSISR [LRP1]
protein stability index: 2.95

###

experiment_summary: protein stability index of a GFP-peptide fusion (yeast GPS) (PSI 1-4); higher = more stable; sorted into four equal gates, so the index is relative within each strain
assay_context: doa10∆
value_kind: protein stability index

construct_sequence: VGDFLLQYANNAVISHA [SIN4]
observed_measurement: 1.99

construct_sequence: KTIQINNEKVVQYLRSV [YML031W/NDC1]
observed_measurement: 3.23

construct_sequence: IDFTLLNRLLRLIVDPN [PRP8]
observed_measurement: 1.85

construct_sequence: QVLLDEEYKQLVKDRKF [RPO21]
observed_measurement: 3.07

construct_sequence: VKWVHMIIDEGHRMKNA [SNF2]
observed_measurement: 1.81

construct_sequence: SEVLVDTLDSKSNGSSD [ISW2]
observed_measurement: 3.07
